Numbers sourced from patent US12011444B2.

biological target: PTGER2 (EP2) (Homo sapiens (Human), UniProt P43116); assay: hEP2 b-arrestin assay (PathHunter HEK 293 PTGER2 b-arrestin cells); type: cell-based; settings: hEP2 b-arrestin assay (values without asterisk)
pIC50: −log10 of the molar value.
Quick rule: pIC50 of at least 8 means Satisfied, below that means Not satisfied.

• CCCc1cc(-c2cc(NCCn3c(C#N)cc4c(OC)ccc(F)c43)ncn2)ccc1C(=O)O = Not satisfied
• N#Cc1cc2c(Cl)cccc2n1CCNc1cc(-c2cc(Cl)c(C(=O)O)s2)ncn1 = Satisfied
• CCOc1cc(-c2cc(NCCn3c(C)cc4c(OC)c(F)cc(Cl)c43)ncn2)sc1C(=O)O = Not satisfied
• CCOc1cc(-c2cc(NCCn3c(C)cc4c(OC)ccc(F)c43)ncn2)ccc1-c1nc2ccccc2o1 = Not satisfied
• COc1ccc(F)c2c1cc(C#N)n2CCNc1cc(-c2ccc(C3(F)COC3)s2)ncn1 = Not satisfied
• Cc1c(F)c(F)cc2c1cc(C#N)n2CCNc1cc(-c2cc(C(F)(F)F)c(C(=O)O)s2)ncn1 = Not satisfied
• COc1ccc(F)c2c1cc(C#N)n2CCNc1cc(-c2ccc(C(O)CO)cc2)ncn1 (racemic) = Not satisfied
• COc1ccc(F)c2c1cc(C#N)n2CCNc1cc(-c2ccnc(N3CCCCC3)c2)ncn1 = Not satisfied
• CCOc1cc(-c2cc(NCCn3c(C#N)cc4c(OC)ccc(F)c43)ncn2)sc1C(=O)OCc1oc(=O)oc1C = Satisfied
• COc1ccc(F)c2c1cc(C)n2CCNc1cc(-c2ccc(C(=O)O)c(OCC(F)(F)F)c2)ncn1 = Satisfied
• COc1cc(F)cc2c1cc(C)n2CCNc1cc(-c2cc(OCC(F)(F)F)c(C(=O)O)s2)ncn1 = Satisfied
• CCOc1cc(-c2cc(NCCn3c(C)cc4c(OC)cc(Cl)cc43)ncn2)sc1C(=O)O = Satisfied
• CCOC(=O)Cc1ccc(-c2cc(NCCn3c(C)cc4c(OC)ccc(F)c43)ncn2)cc1 = Not satisfied
• COc1ccc(F)c2c1cc(C)n2CCNc1cc(-c2ccc(C(=O)O)c(OC3CC4(COC4)C3)c2)ncn1 = Not satisfied
• COc1ccc(F)c2c1cc(C)n2CCNc1cc(-c2cc(C(F)(F)F)c(-c3noc(=O)[nH]3)s2)ncn1 = Not satisfied
• CCOC(=O)OCOC(=O)c1sc(-c2cc(NCCn3c(C#N)cc4c(OC)ccc(F)c43)ncn2)cc1OCC = Not satisfied
• COc1ccc(F)c2c1cc(C)n2CCNc1cc(-c2cc(C(F)(F)F)c(C(=N)NO)s2)ncn1 = Not satisfied

###

# EP2 (Homo sapiens (Human)): pIC50 values follow;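 further: antagonism of PGE2-stimulated cAMP accumulation in SF295 human glioblastoma cells with endogenous EP2, cAMP read by HTRF, expressed relative to DMSO control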
# Sequence (P43116 whole entry): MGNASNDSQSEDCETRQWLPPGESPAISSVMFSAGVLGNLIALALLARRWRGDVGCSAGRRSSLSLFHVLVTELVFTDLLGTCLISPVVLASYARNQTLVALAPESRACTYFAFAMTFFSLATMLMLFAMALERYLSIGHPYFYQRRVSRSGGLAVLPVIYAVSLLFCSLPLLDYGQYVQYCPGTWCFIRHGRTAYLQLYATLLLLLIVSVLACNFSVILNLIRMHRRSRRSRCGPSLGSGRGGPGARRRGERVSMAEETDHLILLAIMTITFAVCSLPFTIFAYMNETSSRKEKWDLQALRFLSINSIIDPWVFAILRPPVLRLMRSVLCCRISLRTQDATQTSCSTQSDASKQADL
pIC50: −log10 of the molar value.
MEASURED ATTRIBUTE: pIC50

- COc1ccc(F)c2c1cc(C)n2CCNc1cc(-c2ccc(-c3cc(C)no3)cc2)ncn1: 7.92
- Cc1ccc(F)c2c1cc(C)n2CCNc1cc(-c2ccc(C(=O)O)c(NCC(F)(F)F)c2)ncn1: 8.15
- CCCc1cc(-c2cc(NCCn3c(C)cc4c(OC)cccc43)ncn2)cc(Cl)c1C(=O)O: 8.15
- COc1ccc(F)c2c1cc(C)n2CCNc1cc(-c2ccc(C(=O)O)c(OC(F)(F)F)c2)ncn1: 8.10
- COc1cc(F)cc2c1cc(C)n2CCNc1cc(-c2ccc(C(=O)CC#N)cc2)ncn1: 7.85
- Cc1ccc(F)c2c1cc(C)n2CCNc1cc(-c2ccc(C(=O)O)c(OC(F)F)c2)ncn1: 7.92
- COc1cc(F)cc2c1cc(C)n2CCNc1cc(-c2ccc(-c3ccon3)cc2)ncn1: 7.80
- COc1ccc(F)c2c1cc(C)n2CCNc1cc(-c2ccc(C(=O)O)c(CC(C)C)c2)nc(C)n1: 7.80
- CCNc1cc(-c2cc(NCCn3c(C)cc4c5c(cc(Cl)c43)OCO5)ncn2)ccc1-c1nnn[nH]1: 8.22
- Cc1cc2c(Cl)cc(Cl)cc2n1CCNc1cc(-c2ccc(-c3noc(=O)[nH]3)cc2)ncn1: 7.85
- COc1ccc(F)c2c1cc(C)n2CCNc1cc(-c2ccc(-c3ccno3)cc2)ncn1: 8.10
